hCereblon(M1-L442)_hDDB1(M1-H1140) (Homo sapiens (Human)) Kd data
Sequence (Q96SW2 whole entry, looked up): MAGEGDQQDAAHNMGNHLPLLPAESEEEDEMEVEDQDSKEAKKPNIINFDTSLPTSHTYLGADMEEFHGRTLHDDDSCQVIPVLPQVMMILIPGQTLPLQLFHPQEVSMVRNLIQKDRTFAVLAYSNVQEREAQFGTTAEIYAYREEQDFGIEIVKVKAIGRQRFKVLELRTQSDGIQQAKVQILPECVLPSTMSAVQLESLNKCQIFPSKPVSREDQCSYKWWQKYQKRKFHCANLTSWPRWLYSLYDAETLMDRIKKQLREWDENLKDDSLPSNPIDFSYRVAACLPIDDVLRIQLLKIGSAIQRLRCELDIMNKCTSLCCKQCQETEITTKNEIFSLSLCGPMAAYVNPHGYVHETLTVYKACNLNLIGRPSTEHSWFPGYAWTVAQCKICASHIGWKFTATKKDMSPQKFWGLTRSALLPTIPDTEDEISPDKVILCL
Sequence (Q16531 whole entry partner, looked up): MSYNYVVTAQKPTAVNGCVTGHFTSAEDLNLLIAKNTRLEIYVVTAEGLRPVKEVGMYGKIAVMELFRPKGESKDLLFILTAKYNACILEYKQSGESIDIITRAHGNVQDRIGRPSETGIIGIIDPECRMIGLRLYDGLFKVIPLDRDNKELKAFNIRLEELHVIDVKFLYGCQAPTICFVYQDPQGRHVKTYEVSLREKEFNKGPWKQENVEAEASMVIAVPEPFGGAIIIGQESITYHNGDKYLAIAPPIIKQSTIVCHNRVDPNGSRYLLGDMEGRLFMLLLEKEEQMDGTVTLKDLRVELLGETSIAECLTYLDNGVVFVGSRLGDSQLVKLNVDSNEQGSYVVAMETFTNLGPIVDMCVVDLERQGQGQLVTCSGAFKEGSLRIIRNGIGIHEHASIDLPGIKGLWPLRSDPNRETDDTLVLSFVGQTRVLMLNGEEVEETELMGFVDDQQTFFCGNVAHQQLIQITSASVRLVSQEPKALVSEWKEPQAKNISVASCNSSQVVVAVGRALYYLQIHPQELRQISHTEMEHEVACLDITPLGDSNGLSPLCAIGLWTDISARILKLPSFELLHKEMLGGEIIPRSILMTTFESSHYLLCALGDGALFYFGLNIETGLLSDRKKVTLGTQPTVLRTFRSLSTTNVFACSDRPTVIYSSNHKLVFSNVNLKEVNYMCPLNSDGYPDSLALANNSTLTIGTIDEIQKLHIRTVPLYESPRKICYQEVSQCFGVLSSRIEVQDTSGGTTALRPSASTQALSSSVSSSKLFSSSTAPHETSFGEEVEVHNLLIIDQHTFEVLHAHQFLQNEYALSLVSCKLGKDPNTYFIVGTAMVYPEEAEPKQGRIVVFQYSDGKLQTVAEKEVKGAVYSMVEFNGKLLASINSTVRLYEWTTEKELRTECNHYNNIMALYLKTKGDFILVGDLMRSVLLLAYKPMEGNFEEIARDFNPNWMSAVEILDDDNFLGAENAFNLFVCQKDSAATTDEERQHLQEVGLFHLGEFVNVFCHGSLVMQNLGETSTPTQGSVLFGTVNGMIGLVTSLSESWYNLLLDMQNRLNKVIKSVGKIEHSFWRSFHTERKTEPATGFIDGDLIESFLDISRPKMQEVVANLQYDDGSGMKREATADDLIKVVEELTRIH

molecule	value type	result value
O=C1CCC2(CCN(C(=O)c3cccc4[nH]ncc34)C2)C(=O)N1 (centres unmarked)	Kd	84 nM

List the reported Kd of each molecule below.
1. COC(=O)c1cccc2nc(N3CCC4(CCC(=O)NC4=O)C3)[nH]c12 (centres unmarked)
2. O=C1NC(=O)C2(CCN(C(=O)c3cnn4ccccc34)CC2)N1
3. Nc1nc2ccc(C(=O)N3CCC4(CCC(=O)NC4=O)C3)cc2s1 (centres unmarked)
4. CC(C)(C)OC(=O)Nc1nc2cc(C(=O)N3CCC4(CCC(=O)NC4=O)C3)ccc2s1 (centres unmarked)
5. O=C1CCC2(CCN(C(=O)c3cccc4c3CC(=O)N4)C2)C(=O)N1 (centres unmarked)
6. O=C1CC2(CCN(c3ccc([N+](=O)[O-])cn3)CC2)C(=O)N1
7. O=C1CCC2(CCN(C(=O)c3ccc4c(c3)CCN4)C2)C(=O)N1 (centres unmarked)

stdout:
["96 nM", "< 1 nM", "26 nM", "6 nM", "47 nM", "23 nM", "4 nM"]

List the reported Kd of each molecule below.
1. CC(=O)N1CCc2ccc(C(=O)N3CCC4(CCC(=O)NC4=O)C3)cc21 (centres unmarked)
2. CC(C)(C)OC(=O)c1ccc(N2CCC3(CCC(=O)NC3=O)C2)nc1 (centres unmarked)
3. O=C1NC(=O)C2(CCN(c3ccc([N+](=O)[O-])cc3)CC2)N1

stdout:
1. 8 nM
2. 2 nM
3. < 1 nM
